These entries and their values trace back to PubChem BioAssay (NCI).

Reported growth inhibition values are given for each entry in this list.
Test: NCI Yeast Anticancer Drug Screen. Data for the mec2-1 strain (AID 157)
Settings: S. cerevisiae mec2-1 strain, at 50.0 µM (retest, dose inferred, filed as 5.0), stronger effect = higher value
About 79,000 compounds went through this panel and 15% of them were active in at least one assay; those are over-represented in the sample as a whole.
measureName: growth inhibition (%)

compound	measureName	recordedResult
C[C@]12CC[C@H]3[C@@H](CCC4=CC(=O)CC[C@@]43C)[C@@H]1CC[C@@H]2C(=O)C=O	growth inhibition	36
CCCCCCCCCCCCCC/[N+]([O-])=C/c1ccc([N+](=O)[O-])o1	growth inhibition	10
Cc1ccc(C(=O)CCCN2CCOCC2)c(C)c1	growth inhibition	30
CCCCCC1OC(CCCCC)OC(CCCCC)O1 (centres undefined)	growth inhibition	-19
Cc1c(N=Nc2c(S(=O)(=O)O)cc3cc(S(=O)(=O)O)c(N=Nc4c(C)n(C)n(-c5ccccc5)c4=O)c(O)c3c2O)c(=O)n(-c2ccccc2)n1C	growth inhibition	-31
CC1=CCCc2c1cc1ccc3cccc4ccc2c1c34	growth inhibition	-8
O=S1OCCS1 (centres undefined)	growth inhibition	90
O=C(c1ccccc1)C(c1ccccc1)C1(O)C(=O)Nc2c(Cl)cc(Cl)cc21 (centres undefined)	growth inhibition	-6
O=C(Nc1ccc(NC(=O)Nc2cc(C(=O)Nc3ccc(C4=NCCN4)cc3)ccc2C(=O)Nc2ccc(C3=NCCN3)cc2)cc1)Nc1cc(C(=O)Nc2ccc(C3=NCCN3)cc2)ccc1C(=O)Nc1ccc(C2=NCCN2)cc1	growth inhibition	-6
C=CCc1ccc(OC(=O)CCl)c(OC)c1	growth inhibition	9
NCCc1ccc2oc3cc(=O)c4ccccc4c-3nc2c1	growth inhibition	30
CC1=C(C(=O)OCCO[N+](=O)[O-])C(c2ccccc2[N+](=O)[O-])C(C(=O)OC(C)C)=C(C)N1 (centres undefined)	growth inhibition	97
CS(=O)(=O)OCCN(CCOS(C)(=O)=O)c1ccc(C=Nc2ccc(-c3csc(-c4ccc(Br)cc4)n3)cc2)cc1	growth inhibition	96
Cc1ccccc1-n1c(N)c(-c2nc3ccccc3[nH]2)sc1=S	growth inhibition	50
O=Cc1c(I)cc(I)c(O)c1I	growth inhibition	99
Nc1ncnc2c1ncn2C1OCC(O)C1O (centres undefined)	growth inhibition	68
CC1=C[P+](c2ccccc2)(c2ccccc2)C=C(c2ccccc2)O1	growth inhibition	98
Cc1ccc(NC(=O)CSC(N)=O)cc1C	growth inhibition	40
O=C(CNCc1ccccc1)c1ccc(Cl)cc1	growth inhibition	6
CCCCCCCCCCNC(=O)C[n+]1cccc(C(=O)NCc2ccccc2)c1	growth inhibition	100
O=C1/C(=C\c2ccc(Cl)cc2Cl)Sc2scc(-c3cccc([N+](=O)[O-])c3)[n+]21	growth inhibition	99
Fc1ccc(C2(CCCN3CCc4[nH]c5cc(F)ccc5c4C3)OCCO2)cc1	growth inhibition	98
Cn1c(=O)c2c(nc(CCCCCCCc3nc4c(c(=O)n(C)c(=O)n4C)n3C)n2C)n(C)c1=O	growth inhibition	18
O=C(CCc1ccccc1)COC(=O)c1ccc([N+](=O)[O-])cc1	growth inhibition	-25
CC1(C)CC(=N/O)/C(=N/O)C(=N\NC(N)=S)/C1	growth inhibition	35
CS(=O)(=O)OCCN(CCOS(C)(=O)=O)c1ccc(C=Nc2cc(Br)c(O)c(Br)c2)c(Cl)c1	growth inhibition	39
CC(NC(=O)OC(C)(C)C)C(=O)NC(Cc1ccccc1)C(=O)NCC(=O)Oc1c(Cl)c(Cl)c(Cl)c(Cl)c1Cl (centres undefined)	growth inhibition	45
CC(=O)OCCCCCCCCCCCCCCO	growth inhibition	99
CC1CCN(c2cc(-c3cc4ccccc4o3)oc(=O)c2C#N)CC1	growth inhibition	3
CSC(SC)(C(=O)O)c1cc(C)no1	growth inhibition	-2
Cc1cc(Cl)c(O)c(-c2cc(-c3ccccc3O)c(C#N)c(N)n2)c1	growth inhibition	80
CC1(C)/C=C/C2=Nc3cc(Br)c(Br)c(Br)c3C23CC(=O)N3/C=C(\Cl)c2nc(Br)[nH]c21 (centres undefined)	growth inhibition	96
C=CCOCCC=O	growth inhibition	5
CCCC(=S)N1CCOCC1	growth inhibition	1
CC(C)c1cc(=O)c2cc3[nH]c4ccccc4c3cc2[nH]1	growth inhibition	87
CC(C)=NOCCOC(=O)C(c1ccccc1)c1ccccc1	growth inhibition	2
Nc1ncnc2c1cnn2C1CCCCC1	growth inhibition	46
O=C1CC2Sc3ccccc3N=C2N1c1ccc(Cl)cc1Cl (centres undefined)	growth inhibition	100
CCC/C(=N\NC(=S)N(C)C)c1ccccn1	growth inhibition	99
O=C(OC1C2CCC2C2CC21)c1ccc([N+](=O)[O-])cc1[N+](=O)[O-] (centres undefined)	growth inhibition	99
O=C1C=CC(=O)C(c2ccc(Cl)cc2)=C1	growth inhibition	97
CCOC(=O)C(C=O)(C=O)c1ccccc1	growth inhibition	19
O=C(Nc1cccc(Cl)c1)OCCOC(=O)Nc1cccc(Cl)c1	growth inhibition	99
COC12C=CC(CC1)C1=C2C(=O)c2nc(C)c(C)nc2C1=O (centres undefined)	growth inhibition	20

----------
Assay: NCI Yeast Anticancer Drug Screen. Data for the mlh1 rad18 strain (AID 175)
Conditions: S. cerevisiae mlh1 rad18 strain growth inhibition; at 5.0 µM (retest, dose inferred, filed as 0.5); stronger effect = higher value
Procedure: Growth inhibition of yeast strains with defined genetic alterations is measured as a screen for potential anti-cancer activity. Selected strains with alterations in DNA damage repair or cell cycle control were exposed to compounds and growth inhibition was measured relative to vehicle treated controls. The strain used in this assay is mlh1 rad18
About 79,000 compounds went through this panel and 15% of them were active in at least one assay; those are over-represented in the sample as a whole. Activity calls are given as the source filed them. Rule as the data show it: active = growth inhibition above about 70%; inactive = the rest.
measureName: growth inhibition

compound	measureName	recordedResult
CC(C)=CC1C(COC(=O)CCl)C1(C)C (stereo unspecified)	growth inhibition	-2% (inactive)
Cc1c(Cl)c(Cl)cc([N+](=O)[O-])c1Cl	growth inhibition	25% (inactive)
CC1(C)OC2COC3(CNO)OC(C)(C)OC3C2O1 (stereo unspecified)	growth inhibition	-10% (inactive)
Fc1ccc(CSC(=S)Nc2ccc(Br)cc2)cc1	growth inhibition	21% (inactive)
CN(C)c1ccc(/C=N/N=C(/C#N)[S][Sn]([S]/C(C#N)=N/N=C/c2ccc(N(C)C)cc2)([c]2ccccc2)[c]2ccccc2)cc1	growth inhibition	5% (inactive)
c1ccc(OCCN2CCN(CCOc3ccccc3)CC2)cc1	growth inhibition	44% (inactive)

----------
Assay: NCI Yeast Anticancer Drug Screen. Data for the sgs1 mgt1 strain (AID 161);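 note: 0% = growth of cultures given vehicle only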
Details: S. cerevisiae sgs1 mgt1 strain, at 50.0 µM (retest, dose inferred, filed as 5.0), stronger effect = higher value
About 79,000 compounds went through this panel and 15% of them were active in at least one assay; those are over-represented in the sample as a whole.
Cut-off 30% on growth inhibition, inclusive. At or above means fulfilled; below means not fulfilled.

compound	answerLabel
C1CCC(CCNCCC2CCCCC2)CC1	fulfilled
Clc1ccc(Oc2nc(Cl)nc3[nH]ncc23)cc1	fulfilled
COc1ccc(C2=Nc3cc(C)c(C)cc3NC(c3ccccc3)C2)cc1 (configuration not stated)	not fulfilled
Clc1cc2ccccc2c2ccccc12	fulfilled
NCc1ccccc1-c1c2nc(c(-c3ccccc3CN)c3ccc([nH]3)c(-c3ccccc3CN)c3nc(c(-c4ccccc4CN)c4ccc1[nH]4)C=C3)C=C2	fulfilled
O=C(CC(O)(C(F)(F)Cl)C(F)(F)Cl)CC(O)(C(F)(F)Cl)C(F)(F)Cl	fulfilled
NNC(=O)c1ccccc1SSc1ccccc1C(=O)NN	fulfilled
Nc1ccc(S(=O)(=O)N2CCCc3ccccc32)cc1	fulfilled
O=C1C2=C(CCCC2)C(=O)c2ccccc21	fulfilled
O=C1/C(=C/c2ccccc2)CNC/C1=C\c1ccccc1	fulfilled
CCCCc1ccc2nc(C)cc(N=[N+]=[N-])c2c1	fulfilled
CC(CCC(=O)O)(c1cc(Br)c(O)c(Br)c1)c1cc(Br)c(O)c(Br)c1	fulfilled
CC1=C(C#N)C(=O)N(C)C(=O)C1(Cl)Cl	not fulfilled
CN(C)c1ccccc1CC(c1c[nH]c2ccccc12)c1c[nH]c2ccccc12	fulfilled
NCCOB(c1ccccc1)c1ccccc1	fulfilled
CCCC[NH-].CCCC[NH-].[I][Pt+2][I]	fulfilled
Cc1ccc(C(=O)OCC(C)C)cc1N=NN(C)C	not fulfilled
O=C(CCCO)N/N=C\c1ccc([N+](=O)[O-])s1	fulfilled
O=C1C2=C(c3ccccc31)C(c1ccccc1Cl)NC(=S)N2 (configuration not stated)	not fulfilled
CCCCCCCCCCCC(N)c1ccccc1 (configuration not stated)	fulfilled
COC(=O)c1cccc2c1C(=O)c1ccccc1-2	not fulfilled
O=[N+]([O-])/C=C/C=C/c1ccco1	fulfilled
O=S1(=O)CCc2ccccc2C(Br)C1Br (configuration not stated)	not fulfilled
CCOc1c(N=Nc2ccccc2Cl)c(-c2ccccc2)nn1C(=S)S	not fulfilled
N#CCCN(CCC#N)Cc1cc(-c2ccccc2)ccc1O	fulfilled
Cc1ccc(S(=O)(=O)Nn2c(S)c(C#N)c(-c3ccc(Cl)cc3)c(C#N)c2=O)cc1	fulfilled
O=C(CC(=O)c1ccccc1)CC(=O)c1ccccc1	fulfilled
COc1cccc2c1C(=O)c1c(O)c3c(c(O)c1C2=O)CC(O)(C(C)=O)CC3OC1CC(NCC2(O)OCC(O)C(O)C2O)C(O)C(C)O1 (configuration not stated)	fulfilled
CC(NC(=O)C(Cc1ccccc1)NC(=O)c1ccc[n+](Cc2ccccc2)c1)C(N)=O (configuration not stated)	not fulfilled
CCO/N=C1\CCCCC1SS(=O)(=O)O (configuration not stated)	not fulfilled
O=[N+]([O-])c1ccc(Sc2ccsc2)c([N+](=O)[O-])c1	fulfilled
Oc1cc(-[n+]2ccc3ccccc3c2)c(O)c2ccccc12	fulfilled
Cc1ccc(COCO)c(O)c1	not fulfilled
N#CN1CCCC(O)c2sc3ccccc3c2CC1 (configuration not stated)	not fulfilled
COC(=O)/N=C/CCC(O)NC(=O)OC (configuration not stated)	not fulfilled
CC1CCN(c2cc(-c3cc4ccccc4o3)oc(=O)c2C#N)CC1	not fulfilled
S=c1n(-c2ccc(Cl)cc2)c2nc3ccccc3nc(/c2=N\Nc2cc(Cl)ccc2Cl)n1-c1ccc(Br)cc1	not fulfilled
CN(C)C(=S)/N=c1\ssc(=S)n1Cc1ccco1	not fulfilled
Cc1cc(C)c(O)c(C2CC3CCC2(C)C3(C)C)c1 (configuration not stated)	fulfilled
c1ccc2c(O[Si](Oc3cccc4ccccc34)(Oc3cccc4ccccc34)Oc3cccc4ccccc34)cccc2c1	fulfilled
Cc1ccc(N=Nc2sc(N)nc2C)cc1C	not fulfilled
CCCCCOC(=O)c1ccc(O)cc1	fulfilled
CC(C)N1C(=O)C=CC1=O	fulfilled
O=C(N/C(=C\c1ccc([N+](=O)[O-])cc1)c1nc2ccccc2s1)c1ccccc1	fulfilled
COC1CC(OC(=O)c2ccccc2)C(OC(=O)c2ccccc2)C(C)O1 (configuration not stated)	not fulfilled
CN(NC(=O)/C(=C\c1ccco1)NC(=O)c1ccccc1)c1cn[nH]c(=O)c1Cl	not fulfilled
